B1: VH:VL chains; a variant is named by its letters at X, in order (parent)
chain 1: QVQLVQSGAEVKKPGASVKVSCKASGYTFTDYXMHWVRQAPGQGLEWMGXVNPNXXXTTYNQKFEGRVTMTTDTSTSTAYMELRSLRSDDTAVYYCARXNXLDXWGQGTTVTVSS
chain 2: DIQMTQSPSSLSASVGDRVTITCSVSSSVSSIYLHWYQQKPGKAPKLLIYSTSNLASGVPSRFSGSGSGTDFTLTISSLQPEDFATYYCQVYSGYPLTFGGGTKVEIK

- Variants of: B1
- assay-summary: yeast display scFab, FACS + sequencing
- test-parameters: with MET
The list shows a part of the results. No count for the full screen is at hand.
reported-metric: antigen binding call

- mutation-notation: "YRKGGAAV"
  result: "binds"
- mutation-notation: "YRGAGALV"
  result: "binds"
- mutation-notation: "VKGTGFLD"
  result: "no binding"
- mutation-notation: "YTGTSSGA"
  result: "no binding"
- mutation-notation: "DGTGGAGA"
  result: "no binding"

Task: What value of measured antigen binding call is listed for YRRKDALA ?
Output: binds

Task: Proceed to YTRGADGV
Output: no binding

Task: Proceed to SKGASFAY
Output: no binding

Task: Proceed to YEGGTSGA
Output: no binding

Task: Proceed to FRGESAAA
Output: binds

Task: Proceed to YKGKGYVD
Output: no binding
